Molecular target: Vascular endothelial growth factor receptor 2 (Homo sapiens, UniProt P35968)
Sequence (P35968 whole entry): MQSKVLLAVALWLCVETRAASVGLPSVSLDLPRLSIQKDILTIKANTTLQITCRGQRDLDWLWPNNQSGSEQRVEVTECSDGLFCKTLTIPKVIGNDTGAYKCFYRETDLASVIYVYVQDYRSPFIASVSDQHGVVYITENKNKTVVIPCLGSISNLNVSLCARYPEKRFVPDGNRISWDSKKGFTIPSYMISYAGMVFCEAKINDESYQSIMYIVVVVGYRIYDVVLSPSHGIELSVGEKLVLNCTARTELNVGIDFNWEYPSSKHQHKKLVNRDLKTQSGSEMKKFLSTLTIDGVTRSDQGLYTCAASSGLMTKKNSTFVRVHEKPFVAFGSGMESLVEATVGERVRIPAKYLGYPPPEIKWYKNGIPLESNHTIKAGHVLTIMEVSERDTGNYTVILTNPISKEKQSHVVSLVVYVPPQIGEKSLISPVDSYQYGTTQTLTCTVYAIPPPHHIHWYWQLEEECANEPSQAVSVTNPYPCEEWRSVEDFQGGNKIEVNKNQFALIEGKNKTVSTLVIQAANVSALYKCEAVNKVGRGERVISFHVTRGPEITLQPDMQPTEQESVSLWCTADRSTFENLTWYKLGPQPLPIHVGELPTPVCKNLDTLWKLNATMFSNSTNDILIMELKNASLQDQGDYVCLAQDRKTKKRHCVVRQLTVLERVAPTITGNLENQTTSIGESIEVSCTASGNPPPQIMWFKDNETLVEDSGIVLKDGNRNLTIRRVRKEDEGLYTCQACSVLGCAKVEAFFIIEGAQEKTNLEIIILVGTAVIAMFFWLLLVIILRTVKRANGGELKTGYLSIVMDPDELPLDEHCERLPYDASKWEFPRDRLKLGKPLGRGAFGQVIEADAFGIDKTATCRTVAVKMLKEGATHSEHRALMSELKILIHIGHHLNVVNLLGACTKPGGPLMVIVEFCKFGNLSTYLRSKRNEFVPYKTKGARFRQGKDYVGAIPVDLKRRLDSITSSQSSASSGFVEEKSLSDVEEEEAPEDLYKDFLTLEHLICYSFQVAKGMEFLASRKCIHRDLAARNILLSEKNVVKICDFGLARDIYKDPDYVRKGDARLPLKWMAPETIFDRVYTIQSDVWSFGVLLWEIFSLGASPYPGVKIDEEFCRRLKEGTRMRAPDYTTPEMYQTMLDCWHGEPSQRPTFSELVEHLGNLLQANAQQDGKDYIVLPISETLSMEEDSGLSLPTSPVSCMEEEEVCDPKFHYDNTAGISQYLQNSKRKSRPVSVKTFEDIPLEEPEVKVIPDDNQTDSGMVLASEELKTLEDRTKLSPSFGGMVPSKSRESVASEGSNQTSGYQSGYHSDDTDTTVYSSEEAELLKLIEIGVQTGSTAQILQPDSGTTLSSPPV
Experimental readout: pIC50
In textbook form, pIC50 equals minus log to base ten of the concentration in mol/L.

Query block: Print Vascular endothelial growth factor receptor 2 (Homo sapiens, UniProt P35968) pIC50 for `c1ccc2c(-c3cnc4[nH]nc(-c5nc6ccccc6[nH]5)c4c3)cncc2c1` .
Result block: 5.84
